Collected TGI values appear next to each entry.
system: M14 melanoma; experiment: NCI tumour cell line growth inhibition, 48 h

{"COMPOUND": "O=C(c1ccccc1)c1c(C(F)(F)F)n([O-])c2ccc(F)cc2[n+]1=O", "TGI": "2.67 µM"}
{"COMPOUND": "O=c1[nH]c2nc3ccccc3n2c(O)c1-c1ccccc1", "TGI": "> 100 µM"}
{"COMPOUND": "COc1ccc2c(c1)OCC1Cc3cc4c(cc3OC21)OCO4 (stereo unspecified)", "TGI": "> 100 µM"}
{"COMPOUND": "O=C1/C(=C/c2ccc(O)c(CN3CCCCC3)c2)CCC/C1=C\\c1ccc(O)c(CN2CCCCC2)c1", "TGI": "44.5 µM"}
{"COMPOUND": "Cc1cc(C)c2ccc(N3CCNCC3)nc2n1", "TGI": "> 100 µM"}
{"COMPOUND": "CCn1c2ccccc2c2nnc(NCCCO)nc21", "TGI": "> 100 µM"}
